target: D(3) dopamine receptor (Rattus norvegicus, UniProt P19020)
Sequence (P19020 whole entry): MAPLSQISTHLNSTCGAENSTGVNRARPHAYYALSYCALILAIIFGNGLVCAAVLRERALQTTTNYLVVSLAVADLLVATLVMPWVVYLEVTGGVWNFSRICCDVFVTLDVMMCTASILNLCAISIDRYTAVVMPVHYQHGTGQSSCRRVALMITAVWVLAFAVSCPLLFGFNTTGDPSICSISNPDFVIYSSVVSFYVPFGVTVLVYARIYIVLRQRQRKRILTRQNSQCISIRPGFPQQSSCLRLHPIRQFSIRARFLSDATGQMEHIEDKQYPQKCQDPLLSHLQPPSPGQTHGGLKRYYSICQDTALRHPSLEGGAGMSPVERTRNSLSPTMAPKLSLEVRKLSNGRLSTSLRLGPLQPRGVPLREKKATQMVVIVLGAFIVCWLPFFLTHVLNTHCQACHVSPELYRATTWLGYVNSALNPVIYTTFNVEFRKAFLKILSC
Labelling field: enter yes (1) if recorded Ki is less than 0.1 µM. Enter no (0) if it equals or exceeds that cut-off.

Below are worked cases with known answers.
>>> df
                                   molecule  group_label
0  CCCN(CC[C@]1(O)C[C@@H](NC(=O)c2ccc3ccccc3c2)C1)[C@H]1C[C@@H]1c1ccccc1       no (0)
1  CCCN(CC[C@]1(O)C[C@@H](NC(=O)c2ccc3ccccc3c2)C1)[C@H]1C[C@@H]1c1ccc(Cl)cc1       no (0)
2                CCCN[C@@H]1C[C@H]1c1ccccc1       no (0)

Problem: For the molecule CCCN(CC[C@]1(O)C[C@@H](NC(=O)c2ccc3ccccc3c2)C1)[C@@H]1C[C@H]1c1ccc(Cl)cc1 , is Ki under 0.1 µM?
yes (1)

Moving on to CCCN(CC[C@]1(O)C[C@@H](NC(=O)c2ccc3ccccc3c2)C1)[C@@H]1C[C@H]1c1ccccc1
yes (1)

Moving on to CCCN[C@H]1C[C@@H]1c1ccccc1
no (0)

Moving on to Cc1ncoc1-c1nnc(SCCCN2CC3CC3(c3ccc(C(F)(F)F)cc3F)C2)n1C (configuration not stated)
yes (1)

Ref: ChEMBL document CHEMBL3259695
